Give measured kon for each item. Keep answers brief.
- study-system: Bac-F
- test-name: BIAcore, mAb vs Bac-F (1:1)
Include the unit after the number when you answer.

In: For the binder A1e9 (monoclonal antibody) (antibody, V domains shown) VH: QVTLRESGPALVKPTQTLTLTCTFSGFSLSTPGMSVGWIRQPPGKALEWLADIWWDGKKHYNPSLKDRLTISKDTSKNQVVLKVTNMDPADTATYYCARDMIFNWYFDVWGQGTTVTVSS VL: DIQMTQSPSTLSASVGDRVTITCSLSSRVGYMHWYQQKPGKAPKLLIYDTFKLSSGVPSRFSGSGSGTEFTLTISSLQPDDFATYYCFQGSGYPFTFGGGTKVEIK , what kon is on record?
Out: 433000 M⁻¹ s⁻¹

In: Given the binder A8c7 (monoclonal antibody) (antibody, V domains shown) VH: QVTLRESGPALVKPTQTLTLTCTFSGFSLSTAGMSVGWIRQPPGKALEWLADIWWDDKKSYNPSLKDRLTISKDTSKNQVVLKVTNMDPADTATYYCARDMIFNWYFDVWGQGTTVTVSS VL: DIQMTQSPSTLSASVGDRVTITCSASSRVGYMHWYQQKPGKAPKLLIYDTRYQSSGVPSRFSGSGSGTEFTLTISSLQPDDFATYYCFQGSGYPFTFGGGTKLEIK , what is its reported kon?
Out: 417000 M⁻¹ s⁻¹

In: Given the binder A12a6 (monoclonal antibody) (antibody, V domains shown) VH: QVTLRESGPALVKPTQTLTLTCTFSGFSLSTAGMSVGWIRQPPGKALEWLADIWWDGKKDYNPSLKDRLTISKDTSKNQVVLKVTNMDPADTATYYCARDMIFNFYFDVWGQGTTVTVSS VL: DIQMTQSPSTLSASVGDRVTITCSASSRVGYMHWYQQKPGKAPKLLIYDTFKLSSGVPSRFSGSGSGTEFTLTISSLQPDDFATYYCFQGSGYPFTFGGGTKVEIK , what is its reported kon?
Out: 460000 M⁻¹ s⁻¹

In: Looking for the measured kon of A13c4 (monoclonal antibody) (antibody, V domains shown) VH: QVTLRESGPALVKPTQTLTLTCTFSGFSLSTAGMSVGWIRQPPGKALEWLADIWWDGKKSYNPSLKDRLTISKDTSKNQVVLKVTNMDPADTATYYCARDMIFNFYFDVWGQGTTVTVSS VL: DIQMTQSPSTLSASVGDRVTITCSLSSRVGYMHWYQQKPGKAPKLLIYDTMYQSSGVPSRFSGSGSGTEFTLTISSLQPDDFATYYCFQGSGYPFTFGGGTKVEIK , can you help?
Out: 300000 M⁻¹ s⁻¹

In: Please look up its kon: A17d4 (monoclonal antibody) (antibody, V domains shown) VH: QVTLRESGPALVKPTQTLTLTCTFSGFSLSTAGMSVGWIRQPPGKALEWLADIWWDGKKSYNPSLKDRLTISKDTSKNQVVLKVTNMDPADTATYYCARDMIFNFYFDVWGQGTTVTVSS VL: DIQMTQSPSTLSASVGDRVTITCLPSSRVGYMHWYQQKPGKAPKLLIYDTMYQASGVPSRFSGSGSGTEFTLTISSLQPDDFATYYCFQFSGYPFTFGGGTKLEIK
Out: 456000 M⁻¹ s⁻¹

In: If you can, please state the reported kon value of P11d4 (monoclonal antibody) (antibody, V domains shown) VH: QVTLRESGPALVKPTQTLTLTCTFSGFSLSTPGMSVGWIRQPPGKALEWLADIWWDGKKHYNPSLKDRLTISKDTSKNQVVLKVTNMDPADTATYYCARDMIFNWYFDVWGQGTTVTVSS VL: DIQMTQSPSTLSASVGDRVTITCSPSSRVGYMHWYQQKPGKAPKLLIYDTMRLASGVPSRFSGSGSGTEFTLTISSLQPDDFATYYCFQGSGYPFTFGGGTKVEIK .
Out: 466000 M⁻¹ s⁻¹

In: What measured kon goes with P12f4 (monoclonal antibody) (antibody, V domains shown) VH: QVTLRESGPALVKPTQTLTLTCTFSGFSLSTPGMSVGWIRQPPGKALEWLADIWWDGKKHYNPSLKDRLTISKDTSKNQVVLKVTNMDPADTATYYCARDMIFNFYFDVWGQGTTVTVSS VL: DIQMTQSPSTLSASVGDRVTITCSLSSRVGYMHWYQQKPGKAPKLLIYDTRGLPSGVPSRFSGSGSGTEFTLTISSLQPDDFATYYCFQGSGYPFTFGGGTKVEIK ?
Out: 495000 M⁻¹ s⁻¹

In: Record request: kon value, item P12f2 (monoclonal antibody) (antibody, V domains shown) VH: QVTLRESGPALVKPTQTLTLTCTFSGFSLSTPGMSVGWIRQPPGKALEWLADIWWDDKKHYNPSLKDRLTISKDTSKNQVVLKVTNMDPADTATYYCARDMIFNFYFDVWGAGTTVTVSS VL: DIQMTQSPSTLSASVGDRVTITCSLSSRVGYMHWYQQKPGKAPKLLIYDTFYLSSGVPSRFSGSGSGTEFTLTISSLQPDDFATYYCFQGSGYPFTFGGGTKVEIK
Out: 407000 M⁻¹ s⁻¹
